The reported measurements were obtained from patent US4493843A.

system: serum cholesterol and serum triglycerides; experiment: Hypolipidaemic activity in rats (compound in diet, last 7 of 10 days); format: in vivo, Male Wistar rats; conditions: Rattus norvegicus, po, 168 h, 0.2 % w/w dose in diet, 7 days, read-out: % change in serum cholesterol compared with control
Here, each record is paired with measured change in vivo at 0.2 % strength data.
Endpoint: change in vivo at 0.2 % strength (%)

CCCCCCCCCCCc1cc2cc(C(=O)OCCCC)ccc2[nH]1; -14
CCCCCCCc1cc2cc(C(=O)OC)ccc2[nH]1 [Compound ASS, methyl 2-(n-heptyl)indole-5-carboxylate]; -2
CCCCCCCCCCCCCCCC1CNc2cc(C(=O)O)ccc21 (racemic); -1
CCCCCCCCCCCCCCCCc1c[nH]c2ccc(C(=O)O)cc12; -6
CCCCCCCCc1cc2ccc(C(=O)O)cc2[nH]1; -32
CCCCCCCc1cc2cc(C(=O)OCC)ccc2[nH]1 [Compound DD, ethyl 2-(n-heptyl)indole-5-carboxylate]; -6
CCCCCCCCCCCCc1cc2cc(C(=O)O)ccc2[nH]1; -30
CCCCCCCCCCCCCCCc1cc2ccc(C(=O)OC)cc2[nH]1; 1
CCCCCCCCCCCCCCCCCCCCCCCc1cc2cc(C(=O)O)ccc2[nH]1; -16
CCCCCCCCCCCCCCCCc1c[nH]c2cc(C(=O)O)ccc12; 7
CCCCCCCCCCCCCCC1Cc2ccc(C(=O)O)cc2N1 (racemic); -8
CCCCCCCCCCC1CNc2ccc(C(=O)O)cc21 (racemic); -3
CCCCCCCCCCCCCCCCCc1cc2cc(C(=O)O)ccc2[nH]1; -54
CCCCCCCCCCCCc1c[nH]c2cc(C(=O)O)ccc12; -2
CCCCCCCCCCCc1cc2ccc(C(=O)OCC)cc2[nH]1 [Compound FF, ethyl 2-(n-undecyl)indole-6-carboxylate]; -13

---

Here, each record is paired with measured change in vivo at 0.2 % strength data.
tested on: serum cholesterol and serum triglycerides; experiment: Hypolipidaemic activity in rats (compound in diet, last 7 of 10 days); type: in vivo, Male Wistar rats; details: Rattus norvegicus, po, 168 h, 0.2 % w/w dose in diet, 7 days, read-out: % change in serum cholesterol compared with control
Endpoint: change in vivo at 0.2 % strength (%)

CCCCCCCCCCCc1cc2ccc(C(=O)OCCCC)cc2[nH]1 [Compound GG]; -11
CCCCCCCCCCc1cc2ccc(C(=O)O)cc2[nH]1 [Compound N, 2-(n-decyl)indole-6-carboxylic acid]; -20
CCCCCCCCCCCCCCCc1cc2ccc(C(=O)OCCCC)cc2[nH]1 [Compound APP]; -2
CCCCCCCCCc1cc2c(C(=O)O)cccc2[nH]1 [Compound Z, 2-(n-nonyl)indole-4-carboxylic acid]; -14
CCCCCCCCc1c[nH]c2cc(C(=O)OC)ccc12 [Compound AZZ, methyl 3-(n-octyl)indole-6-carboxylate]; -18
CCCCCCCCCCCCCCCCCCCc1cc2cc(C(=O)O)ccc2[nH]1 [Compound PP, 2-(n-nonadecyl)indole-5-carboxylic acid]; -13
CCCCCCCCCCCCCCc1cc2cc(C(=O)O)ccc2[nH]1 [Compound NN, 2-(n-tetradecyl)indole-5-carboxylic acid]; -39

---

Here, each record is paired with measured change in vivo at 0.2 % strength data.
system: serum cholesterol and serum triglycerides; experiment: Hypolipidaemic activity in rats (compound in diet, last 7 of 10 days); type: in vivo, Male Wistar rats; settings: Rattus norvegicus, po, 168 h, 0.2 % w/w dose in diet, 7 days, read-out: % change in serum cholesterol compared with control
Endpoint: change in vivo at 0.2 % strength (%)

CCCCCCCCCCCc1cc2cccc(C(=O)O)c2[nH]1 [Compound XX, 2-(n-undecyl)indole-7-carboxylic acid]; -2
CCCCCCCCCCCCCc1cc2ccc(C(=O)OCC)cc2[nH]1 [Compound AMM, ethyl 2-(n-tridecyl)indole-6-carboxylate]; -4
CCCCCCCCCCCCc1cc2cc(C(=O)OCCCC)ccc2[nH]1 [Compound KK]; -18
CCCCCCCCC1CNc2cc(C(=O)O)ccc21 (racemic) [Compound CCC]; -11

---

Here, each record is paired with measured change in vivo at 0.2 % strength data.
test system: serum cholesterol and serum triglycerides; assay: Hypolipidaemic activity in rats (compound in diet, last 7 of 10 days); format: in vivo, Male Wistar rats; conditions: Rattus norvegicus, po, 168 h, 0.2 % w/w dose in diet, 7 days, read-out: % change in serum cholesterol compared with control
Endpoint: change in vivo at 0.2 % strength (%)

CCCCCCCCCCCCCCCCC1CNc2cc(C(=O)O)ccc21 (racemic) [Compound CDD]; -19
CCCCCCCCCc1cc2cc(C(=O)O)ccc2[nH]1 [Compound O, 2-(n-nonyl)indole-5-carboxylic acid]; -13
CCCCCCCCCc1cc2cccc(C(=O)O)c2[nH]1 [Compound WW, 2-(n-nonyl)indole-7-carboxylic acid]; -3
CCCCCCCCCCCCCCc1cc2ccc(C(=O)O)cc2[nH]1 [Compound SS, 2-(n-tetradecyl)indole-6-carboxylic acid]; -14
CCCCCCCCCCCCCCCCCCCCc1cc2ccc(C(=O)OCCCC)cc2[nH]1 [Compound AQQ]; 6
CCCCCCCCCc1cc2ccc(C(=O)O)cc2[nH]1 [Compound L, 2-(n-nonyl)indole-6-carboxylic acid]; -21
CCCCCCCc1cc2ccc(C(=O)O)cc2[nH]1 [Compound R, 2-(n-heptyl)indole-6-carboxylic acid]; -12
CCCCCCCCCCCCCCCCCc1cc2cc(C(=O)OC)ccc2[nH]1 [Compound AWW]; -24
CCCCCCCCCCCCCCCCc1cc2ccc(C(=O)O)cc2[nH]1 [Compound TT, 2-(n-hexadecyl)indole-6-carboxylic acid]; -8
CCCCCCCCCCCCCCCCCCC1CNc2ccc(C(=O)O)cc21 (racemic) [Compound BOO]; 3
CCCCCCCCCCCCC1CNc2cc(C(=O)O)ccc21 (racemic) [Compound CAA]; -28
CCCCCCCCCCCCCc1cc2cc(C(=O)O)ccc2[nH]1 [Compound H, 2-(n-tridecyl)indole-5-carboxylic acid]; -48
CCCCCCCCCCCCc1cc2ccc(C(=O)OCC)cc2[nH]1 [Compound CC, ethyl 2-(n-dodecyl)indole-6-carboxylate]; -17
CCCCCCCCCCCCCCCCc1c[nH]c2ccc(C(=O)OC)cc12 [Compound BCC]; 2
CCCCCCCCCC(C)c1cc2ccc(C(=O)O)cc2[nH]1 (racemic) [Compound VV]; -40

---

tested on: serum cholesterol and serum triglycerides; assay: Hypolipidaemic activity in rats (compound in diet, last 7 of 10 days); format: in vivo, Male Wistar rats; conditions: Rattus norvegicus, po, 168 h, 0.2 % w/w dose in diet, 7 days, read-out: % change in serum cholesterol compared with control
Endpoint: change in vivo at 0.2 % strength

CCCCCCCCCCCCCCCCCCc1c[nH]c2cc(C(=O)O)ccc12; -7%
CCCCCCCCCCc1cc2cc(C(=O)O)ccc2[nH]1; -26%
CCCCCCCCCCCCCCCc1cc2cc(C(=O)OCCCC)ccc2[nH]1; -24%
CCCCCCCCc1c[nH]c2ccc(C(=O)O)cc12; 0%

---

tested on: serum cholesterol and serum triglycerides; test: Hypolipidaemic activity in rats (compound in diet, last 7 of 10 days); assay type: in vivo, Male Wistar rats; conditions: Rattus norvegicus, po, 168 h, 0.2 % w/w dose in diet, 7 days, read-out: % change in serum triglycerides compared with control
Here, each record is paired with measured change in vivo at 0.2 % strength data.
Endpoint: change in vivo at 0.2 % strength

CCCCCCCCCC(C)c1cc2cc(C(=O)O)ccc2[nH]1 (racemic); -88%
CCCCCCCCC1CNc2ccc(C(=O)O)cc21 (racemic); 31%
CCCCCCCCCCCc1cc2ccc(C(=O)OCC)cc2[nH]1 [Compound FF, ethyl 2-(n-undecyl)indole-6-carboxylate]; -40%
CCCCCCCCCCCCc1cc2ccc(C(=O)O)cc2[nH]1; -52%
CCCCCCCCCCCCCCCc1cc2cc(C(=O)OCC)ccc2[nH]1; -39%
CCCCCCCCCCCc1cc2cc(C(=O)OCCCC)ccc2[nH]1; -57%
CCCCCCCCCCCCCCCCC1CNc2cc(C(=O)OC)ccc21 (racemic); 10%
CCCCCCCCCCCCCCCc1cc2cc(C(=O)OC)ccc2[nH]1; -22%

---

test system: serum cholesterol and serum triglycerides; experiment: Hypolipidaemic activity in rats (compound in diet, last 7 of 10 days); assay type: in vivo, Male Wistar rats; details: Rattus norvegicus, po, 168 h, 0.2 % w/w dose in diet, 7 days, read-out: % change in serum triglycerides compared with control
Rule: change in vivo at 0.2 % strength below -60% gives Met, anything at or above gives Not met.

CCCCCCCCCCCC1CNc2cc(C(=O)O)ccc21 (racemic); Not met
CCCCCCCCCCCCCCCCCCCCCCCc1cc2cc(C(=O)O)ccc2[nH]1; Not met
CCCCCCCCCCCC1Nc2cc(C(=O)O)ccc2C1C (stereo not shown); Met
CCCCCCCCCCCCCCCCc1cc2cc(C(=O)O)ccc2[nH]1; Met
CCCCCCCc1cc2cc(C(=O)OCC)ccc2[nH]1 [Compound DD, ethyl 2-(n-heptyl)indole-5-carboxylate]; Not met
CCCCCCCCCCCC1Cc2cc(C(=O)O)ccc2N1C (racemic); Not met
CCCCCCCCCCCCc1cc2ccc(C(=O)OCC)cc2[nH]1 [Compound CC, ethyl 2-(n-dodecyl)indole-6-carboxylate]; Not met
